Test system: Mycobacterium tuberculosis (H37Rv)
Test: Growth in liquid media in presence of test compound
Assay type: cell-based
Conditions: 50 mg/L
observable: Growth in the presence of test compound, M. tuberculosis

Completed entries (count: 4):
# compound, value.reported
records = [
    ("NCCCCC(N)C(=O)NC(CB(O)O)Cc1ccccc1 (centres unmarked) [Compound 34]", "−"),
    ("CC1(C)C2CC3OB(CCNC(=O)[C@@H](N)CCCCN)O[C@]3(C)C1C2 (some centres unmarked) [Compound 32]", "+"),
    ("N[C@@H](Cc1ccccc1)C(=O)NC[C@@H](CCc1ccccc1)B(O)O [Compound 39]", "+"),
    ("CC1(C)C2CC3OB([C@H](CCc4ccccc4)CNC(=O)[C@@H](N)CCCCN)O[C@]3(C)C1C2 (some centres unmarked) [Compound 19]", "−"),
]

Query compound follows.
**Query** Report measured Growth in the presence of test compound, M. tuberculosis; entry is C[C@H](CNC(=O)[C@@H](N)CCCCN)B1OC2CC3CC(C3(C)C)[C@@]2(C)O1 (some centres unmarked) [Compound 16]
**Result** ±
